Test Name: Selectivity index, ratio of IC50 for mouse J774 cells to IC50 for Leishmania donovani axenic amastigotes infected in mouse J774 cells
Assay type: toxicity, cell-based
Cond: read-out: Ratio IC50
Property Label: selectivity ratio
Answers are plain numbers.

Please review the following examples before continuing.
>>> df
                                   compound  test_value
0  N=C1NC[C@H](CCCCN2C[C@@H](Cc3ccc4ccccc4c3)N(CCCCC3CCCCC3)C2=N)N1CCc1cccc(C(F)(F)F)c1          28
1             CCCC[C@H]1CNC(=N)N1CCc1ccccc1          23
2  N=C1NC[C@H](CCCCN2C[C@@H](Cc3ccc4ccccc4c3)N(CCc3ccc(-c4ccccc4)cc3)C2=N)N1CCC12CC3CC(CC(C3)C1)C2          25
3    N=C1NCCN1CCCC[C@H]1CNC(=N)N1CCc1ccccc1          13
4  CCCCCCCN1C(=N)N(CCCC[C@H]2CNC(=N)N2)C[C@@H]1CCCC          17

Parameter requested: selectivity ratio. Apply to each item below.
1. CCCC[C@H]1CN(CCCC[C@H]2CNC(=N)N2CCC23CC4CC(CC(C4)C2)C3)C(=N)N1
2. N=C1NCCN1CCCC[C@H]1CNC(=N)N1CCC12CC3CC(CC(C3)C1)C2
3. CCCCCCCN1C(=N)N(CCCC[C@H]2CNC(=N)N2CCCCC2CCCCC2)C[C@@H]1CC1CCCCC1
4. CCCC[C@H]1CNC(=N)N1CC1CCC(C)CC1 (stereo not given in full)
5. CCCCCCCN1C(=N)N(CCCC[C@H]2CNC(=N)N2)C[C@@H]1CC1CCCCC1

Output line:
[3, 14, 36, 10, 20]

* * *

For each of the molecules below, state its selectivity ratio.
Test Name: Selectivity index, ratio of IC50 for mouse J774 cells to IC50 for Leishmania donovani axenic amastigotes infected in mouse J774 cells
Type: toxicity, cell-based
Cond: read-out: Ratio IC50
Answers are plain numbers.

Please review the following examples before continuing.
In [3]: df
Out[3]:
                               smiles_entry  test_value
0  CCCC[C@H]1CN(CCCC[C@@H]2CNC(=N)N2CCC23CC4CC(CC(C4)C2)C3)C(=N)N1CCc1ccc(-c2ccccc2)cc1           6
1  N=C1NC[C@H](CCCCN2C[C@H](CC3CCCCC3)N(CCc3ccc(-c4ccccc4)cc3)C2=N)N1CCC12CC3CC(CC(C3)C1)C2          20
2  CCCCCCCN1C(=N)N(CCCC[C@H]2CNC(=N)N2CCC23CC4CC(CC(C4)C2)C3)C[C@@H]1CC1CCCCC1          11

Now consider the entry below.
Input line: Which selectivity ratio reading was recorded for the molecule `Cc1ccc(CCN2C(=N)NC[C@@H]2CCCCN2CCNC2=N)cc1` ?
Output line: 6

* * *

Test Name: Selectivity index, ratio of IC50 for mouse J774 cells to IC50 for Leishmania donovani axenic amastigotes infected in mouse J774 cells
Type: toxicity, cell-based
Cond: read-out: Ratio IC50
Property Label: selectivity ratio
One number for each entry.

>>> print(df.to_string())
                               smiles_entry  test_value
0  N=C1NC[C@H](CCCCN2CCN(CCc3ccccc3)C2=N)N1          36

Parameter requested: selectivity ratio. Apply to each item below.
1. N=C1NC[C@H](CCCCN2CCNC2=N)N1
2. CCCC[C@H]1CN(CCCC[C@H]2CNC(=N)N2CCc2cccc(C(F)(F)F)c2)C(=N)N1CCCCC1CCCCC1

Output line:
[10, 10]

* * *

For each of the compounds below, state its selectivity ratio.
Test Name: Selectivity index, ratio of IC50 for mouse J774 cells to IC50 for Leishmania donovani axenic amastigotes infected in mouse J774 cells
Assay type: toxicity, cell-based
Cond: read-out: Ratio IC50

Please review the following examples before continuing.
                               smiles_entry  test_value
0  CCCC[C@H]1CN(CCCC[C@H]2CNC(=N)N2CCCCC2CCCCC2)C(=N)N1CCCCC1CCCCC1         < 3
1  CCCC[C@H]1CN(CCCC[C@H]2CNC(=N)N2)C(=N)N1     5 to 10

Now consider the entry below.
Input line: Which selectivity ratio reading was recorded for the compound `CCCC[C@H]1CN(CCCC[C@H]2CNC(=N)N2CCc2cccc(C(F)(F)F)c2)C(=N)N1CCc1ccc(-c2ccccc2)cc1` ?
Output line: 88 to 89

Origin of values: ChEMBL document CHEMBL4118093
